Ref: ChEMBL document CHEMBL1123221

Protocol Details: Half-life measured by the effect on contractility after oral administration of 25 ug/kg in dog
Condition Info: in vivo, 0.025 mg/kg
Assay Metric: half-life

Give a short answer stating reported half-life for CC1(C)C(=O)Nc2ccc(C3=NNC(=O)CC3)cc21 [INDOLIDAN] .
> 8 h

###

Protocol Details: Oral bioavailability determined in dog
Assay type: ADME, organism-based, Canis lupus familiaris
Condition Info: in vivo
Assay Metric: bioavailability (%)
Write it as a number; the unit % goes unstated.

Identify the reported bioavailability for the following entry. CC1(C)C(=O)Nc2ccc(C3=NNC(=O)CC3)cc21
100

###

Species: Felis catus
Protocol Details: Compound was evaluated for inotropic activity in cat papillary muscles at concentration of (10e -5)M
Format: functional, Papillary muscle
Each item that follows carries a reported Contractility (% of control).
A bare number is not enough; add the unit after it.

# Compound, Contractility (% of control)
rows = [
    ("O=C1CCC(c2ccc3c(c2)CCCC(=O)N3)=NN1", "137%"),
]

Give the reported Contractility (% of control) for this compound. CC(=O)Nc1ccc(C2=NNC(=O)CC2)cc1
128%

Name the recorded Contractility (% of control) of the compound listed here: O=C1CCC(c2ccc3c(c2)CCC(=O)N3)=NN1
156%

###

Test system: Canis familiaris
Protocol Details: Tested for cardiovascular contractility in anesthetized dogs
Type: functional
Condition Info: Canis lupus familiaris
Values of ED50 strictly less than 0.02 mg/kg map to Criterion met, and values of at least 0.02 mg/kg map to Criterion not met.

Look over these answered cases.
# Molecule, Label Value
measured = [
    ("CC(=O)Nc1ccc(C2=NNC(=O)CC2C)cc1 (stereo not given)", "Criterion met"),
    ("O=C1CCC(c2ccc3c(c2)CCCN3)=NN1", "Criterion not met"),
    ("CCC1(C)C(=O)Nc2ccc(C3=NNC(=O)CC3)cc21 (stereo not given)", "Criterion not met"),
    ("CCC1(CC)C(=O)Nc2ccc(C3=NNC(=O)CC3)cc21", "Criterion not met"),
    ("CC1CC(c2ccc3c(c2)C(C)(C)C(=O)N3)=NNC1=O (stereo not given)", "Criterion met"),
    ("CCC1(C)C(=O)Nc2ccc(C3=NNC(=O)CC3C)cc21 (stereo not given)", "Criterion met"),
    ("Cc1[nH]c(=O)c(C#N)cc1-c1ccncc1", "Criterion not met"),
    ("O=C1CCC(c2ccc3c(c2)CCC(=O)N3)=NN1", "Criterion met"),
]

Lab note: next molecule to report on.
Does the reported ED50 of the following molecule sit strictly below 0.02 mg/kg? CC1CC(=O)NN=C1c1ccc2c(c1)C(C)(C)C(=O)N2C (stereo not given)
Criterion met

###

Test system: Canis familiaris
Protocol Details: Evaluated for percent increase in heart rate in anesthetized dogs
Format: functional, Canis lupus familiaris
Would you mind labelling by Increase? At or over 6% is TRUE, under is FALSE.

# Molecule, Assayed Target, Label Value
data = [
    ("Cc1cc(C2=NNC(=O)CC2)cc2c1NC(=O)C2(C)C", "Canis familiaris", "TRUE"),
    ("O=C1CCC(c2ccc3c(c2)CC(=O)N3)=NN1", "Canis familiaris", "FALSE"),
    ("CCC1(C)C(=O)Nc2ccc(C3=NNC(=O)CC3)cc21 (stereo unspecified)", "Canis familiaris", "FALSE"),
    ("CN1C(=O)CCc2cc(C3=NNC(=O)CC3)ccc21", "Canis familiaris", "TRUE"),
    ("CC(=O)Nc1ccc(C2=NNC(=O)CC2C)cc1 (stereo unspecified)", "Canis familiaris", "TRUE"),
]

Now for a further molecule.
Reported Increase reaches at least 6% for CN1C(=O)C(C)(C)c2cc(C3=NNC(=O)CC3)ccc21 ?
TRUE

###

Reported Control values are given for each entry in this list.
Species on record: Felis catus
Protocol Details: Compound was evaluated for inotropic activity in cat papillary muscles at concentration of (10e -6)M
Assay type: functional, Papillary muscle
Entry rule: numbers only, all in %.

# Line Notation, Quantity Unit, Recorded Measurement
rows = [
    ("O=C1CCC(c2ccc3c(c2)CC(=O)N3)=NN1", "%", 116),
    ("CC1(C)C(=O)Nc2ccc(C3=NNC(=O)CC3)cc21", "%", 134),
    ("O=C1CCC(c2ccc3c(c2)CCCC(=O)N3)=NN1", "%", 121),
]

Note: attention shifts to another entry.
Could you please provide reported Control for O=C1CCC(c2ccc3c(c2)CCC(=O)N3)=NN1 ? Thanks!
150

###

System: Canis familiaris
Protocol Details: Evaluated for percent increase in heart rate in anesthetized dogs
Type: functional, Canis lupus familiaris
# note: boundary value 9% maps to n; Increase below it maps to y

Known results for compounds:
# Compound, Assayed Target, Label Value
measured = [
    ("O=C1CCC(c2ccc3c(c2)CCCC(=O)N3)=NN1", "Canis familiaris", "n"),
    ("O=C1CCC(c2ccc(-n3ccnc3)cc2)=NN1", "Canis familiaris", "n"),
]

Find out if reported Increase for Cc1cc2c(cc1C1=NNC(=O)CC1)C(C)(C)C(=O)N2 is less than 9%
y

Record CCCC1(C)C(=O)Nc2ccc(C3=NNC(=O)CC3)cc21 (configuration not stated) : is its Increase strictly below 9%?
n

# strict comparison: is reported Increase < 9%? input = CC1CC(=O)NN=C1c1ccc2c(c1)C(C)(C)C(=O)N2C (configuration not stated)
n

Take the compound CCC1(C)C(=O)Nc2ccc(C3=NNC(=O)CC3C)cc21 (configuration not stated) and say whether its Increase is less than 9%.
n

# strict comparison: is reported Increase < 9%? input = CC1C(=O)Nc2ccc(C3=NNC(=O)CC3)cc21 (configuration not stated)
y

Report whether reported Increase is lower than 9% (strictly) for CC1CC(c2ccc3c(c2)C(C)(C)C(=O)N3)=NNC1=O (configuration not stated)
n

Please let me know if CC1(C)CC(=O)Nc2ccc(C3=NNC(=O)CC3)cc21 shows Increase below 9%.
y

Hello, is Increase of the following compound strictly smaller than 9%? CCC1C(=O)Nc2ccc(C3=NNC(=O)CC3)cc21 (configuration not stated)
n

Would you kindly verify if Increase of O=C1CCC(c2ccc3c(c2)CCCN3)=NN1 is strictly less than 9%?
n

###

Protocol Details: Half-life in dog
Condition Info: in vivo
Assay Metric: half-life (h)
Provide the reading as a plain figure in h.

Give reported half-life value for CC1(C)C(=O)Nc2ccc(C3=NNC(=O)CC3)cc21
14

###

Known Increase of a selection of compounds
Tested on: Canis familiaris
Protocol Details: Evaluated for percent increase in heart rate in anesthetized dogs
Type: functional, Canis lupus familiaris
Expressed in %, but write only the number.

Sample answers from the record:
# Line Notation, Increase, %
rows = [
    ("O=C1CCC(c2ccc3c(c2)CCC(=O)N3)=NN1", 18.5),
    ("CC1(C)C(=O)Nc2ccc(C3=NNC(=O)CC3)cc21", 11.8),
    ("Cc1[nH]c(=O)c(C#N)cc1-c1ccncc1", 9),
    ("CC(=O)Nc1ccc(C2=NNC(=O)CC2)cc1", 5),
    ("CC1(C)Cc2cc(C3=NNC(=O)CC3)ccc2NC1=O", 8.5),
]

In the following, a different compound is considered.
Report Increase for CN1N=C(c2ccc3c(c2)CC(=O)N3)CCC1=O
11

###

Test system: Canis familiaris
Protocol Details: Evaluated for percent decrease in maximum arterial blood pressure in anesthetized dogs
Type: functional, Canis lupus familiaris
Cut-off 9% on Decrease, inclusive. At or above means YES; below means NO.

# Molecule, Label Value
records = [
    ("O=C1CCC(c2ccc3c(c2)CCC(=O)N3)=NN1", "NO"),
    ("CCC1(C)C(=O)Nc2ccc(C3=NNC(=O)CC3)cc21 (centres undefined)", "NO"),
    ("O=C1CCC(c2ccc3c(c2)CC(=O)N3)=NN1", "NO"),
    ("Cc1cc(C2=NNC(=O)CC2)cc2c1NC(=O)C2(C)C", "YES"),
    ("O=C1CCC(c2ccc(-n3ccnc3)cc2)=NN1 [IMAZODAN]", "YES"),
]

Determine whether measured Decrease meets or exceeds 9% for CC(=O)Nc1ccc(C2=NNC(=O)CC2)cc1
NO

In plain terms: is recorded Decrease at least 9% for CC1(C)C(=O)Nc2ccc(C3=NNC(=O)CC3)cc21 [INDOLIDAN] ?
YES

Kindly determine if Decrease recorded for CC1(C)CC(=O)Nc2ccc(C3=NNC(=O)CC3)cc21 is above or exactly 9%.
YES

Check the entry Cc1[nH]c(=O)c(C#N)cc1-c1ccncc1 [MILRINONE] : does Decrease equal or exceed 9%?
NO

Confirm if Decrease reported for the molecule CC1C(=O)Nc2ccc(C3=NNC(=O)CC3)cc21 (centres undefined) is 9% or above.
YES

Can CN1C(=O)CCc2cc(C3=NNC(=O)CC3)ccc21 be said to have Decrease at or above 9%?
YES

Decrease >= 9% for O=C1CCC(c2ccc3c(c2)CCCC(=O)N3)=NN1 ?
YES

Record Cc1cc2c(cc1C1=NNC(=O)CC1)C(C)(C)C(=O)N2 ; criterion: Decrease no lower than 9%. Met?
NO

Kindly determine if Decrease recorded for CC1(C)Cc2cc(C3=NNC(=O)CC3)ccc2NC1=O is above or exactly 9%.
NO

Could you verify whether the entry CC(=O)Nc1ccc(C2=NNC(=O)CC2C)cc1 (centres undefined) shows Decrease of no less than 9%?
YES

Decide: Decrease of CCC1(CC)C(=O)Nc2ccc(C3=NNC(=O)CC3)cc21 >= 9%?
NO

Evaluate CCC1C(=O)Nc2ccc(C3=NNC(=O)CC3)cc21 (centres undefined) : Decrease at minimum 9%?
YES

Identify whether the reported Decrease of the following molecule is 9% or greater: O=C1CCC(c2ccc3c(c2)CCCN3)=NN1
YES

Test whether the molecule CCCC1(C)C(=O)Nc2ccc(C3=NNC(=O)CC3)cc21 (centres undefined) records Decrease of 9% or higher.
YES

Decide: Decrease of CC1CC(=O)NN=C1c1ccc2c(c1)C(C)(C)C(=O)N2C (centres undefined) >= 9%?
YES
